molecular target: SCD5 (Homo sapiens); construct: host or cells: Saccharomyces cerevisiae ole1Δ strain (W303 pdr1Δ pdr3Δ background), plasmid pRS316, TDH3 promoter; experiment: Growth inhibition of yeast (ole1Δ) expressing human SCD5 as the sole desaturase; format: cell-based; details: yeast strain with SCD5 plasmid, OD600 growth read at 40 h; read-out: SCD5 IC50
Sequence (Q86SK9 whole entry): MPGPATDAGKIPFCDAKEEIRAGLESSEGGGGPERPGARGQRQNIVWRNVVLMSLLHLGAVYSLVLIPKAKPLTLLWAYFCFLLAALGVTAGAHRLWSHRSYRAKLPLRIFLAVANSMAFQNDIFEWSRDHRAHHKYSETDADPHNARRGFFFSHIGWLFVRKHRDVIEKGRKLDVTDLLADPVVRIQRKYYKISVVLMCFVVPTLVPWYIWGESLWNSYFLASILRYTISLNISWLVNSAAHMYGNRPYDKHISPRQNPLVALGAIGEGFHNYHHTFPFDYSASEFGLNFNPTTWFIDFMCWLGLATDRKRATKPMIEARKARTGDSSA
Reported values of pIC50 for individual entries
Remember the convention: pIC50 equals -log10 of concentration in molar.

Check out these entries, answers already filled in.
Cn1nc(-c2nnc(N3CCC(Cc4cc(F)cc(F)c4)CC3)o2)ccc1=O [Compound 118] : 7.15
COc1ccccc1OC1CCN(C(=O)Nc2ccc(=O)n(C)n2)CC1 [Compound 73] : 4.90
Cn1nc(CC(=O)N2CCC(Cc3cc(F)cc(F)c3)CC2)ccc1=O [Compound 38] : 5.20

Provide one value: measured pIC50 of Cn1nc(NC(=O)N2CCC(Oc3cc(F)ccc3Cl)CC2)ccc1=O [Compound 82] 7.70

Return pIC50 for the following compound: Cc1cc(NC(=O)N2CCC(Oc3cc(F)cc(F)c3)CC2)nn(C)c1=O [Compound 126] 7.40

Consider the compound Cn1nc(NC(=O)N2CCC(COc3ccccc3C(F)(F)F)CC2)ccc1=O [Compound 100] . State its measured pIC50. 6.66

Provide pIC50 value for the following compound: Cn1nc(NC(=O)N2CCC(Cc3ccc(F)c(C#N)c3)CC2)ccc1=O [Compound 58] 4.98

Input Cn1nc(NC(=O)N2CCC(Oc3ccc(F)cc3Cl)CC2)ccc1=O [Compound 83] , output reported pIC50. 5.21

Note down pIC50 recorded for Cn1nc(-c2nnc(N3CCC(Cc4cc(F)cc(F)c4)CC3)s2)ccc1=O [Compound 121] 8.00

---

Quick list: IC50 per entry.
target: SCD1 (Homo sapiens, UniProt O00767); construct: host or cells: Saccharomyces cerevisiae ole1Δ strain (W303 pdr1Δ pdr3Δ background), plasmid pRS316, TDH3 promoter; assay: Growth inhibition of yeast (ole1Δ) expressing human SCD1 as the sole desaturase; type: cell-based; details: yeast strain with SCD1 plasmid, OD600 growth read at 40 h; read-out: SCD1 IC50
Sequence (O00767 whole entry): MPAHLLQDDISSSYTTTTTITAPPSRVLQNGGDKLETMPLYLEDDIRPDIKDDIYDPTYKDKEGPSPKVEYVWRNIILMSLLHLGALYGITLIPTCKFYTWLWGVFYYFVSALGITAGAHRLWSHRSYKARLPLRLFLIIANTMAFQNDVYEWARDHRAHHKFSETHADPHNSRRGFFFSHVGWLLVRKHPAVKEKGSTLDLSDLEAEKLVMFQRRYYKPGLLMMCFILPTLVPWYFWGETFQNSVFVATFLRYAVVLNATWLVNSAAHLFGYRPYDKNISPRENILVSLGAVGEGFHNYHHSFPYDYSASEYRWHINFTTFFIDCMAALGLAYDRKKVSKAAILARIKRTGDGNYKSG
Numeric only. Scale: µM

Some entries whose results are on file:
Cn1nc(CC(=O)N2CCC(Oc3cccc(Cl)c3)CC2)ccc1=O : 1.35
Cn1nc(-c2nc(N3CCC(Cc4cc(F)cc(F)c4)CC3)no2)ccc1=O : 0.45

Proceed to the following item.
Return reported IC50. Input compound: Cn1cc(-c2noc(N3CCC(Cc4cc(F)cc(F)c4)CC3)n2)ccc1=O 10

---

target: SCD5 (Homo sapiens); construct: host or cells: Saccharomyces cerevisiae ole1Δ strain (W303 pdr1Δ pdr3Δ background), plasmid pRS316, TDH3 promoter; assay: Growth inhibition of yeast (ole1Δ) expressing human SCD5 as the sole desaturase; assay type: cell-based; settings: yeast strain with SCD5 plasmid, OD600 growth read at 40 h; read-out: SCD5 IC50
Collected pIC50 values appear next to each entry.
Please note pIC50 is a logarithmic value: minus log10 of concentration in mol/L. Answer with that number alone.

Cn1nc(NC(=O)N2CC(Cc3cccc(Cl)c3)C2)ccc1=O : 6.02

Tell me its pIC50 given Cn1cc(-c2noc(N3CCC(Cc4ccc(F)c(F)c4)CC3)n2)ccc1=O as the entry. 5.85

Complete the entry with pIC50 for Cn1nc(-c2noc(N3CCC(Cc4cc(F)cc(F)c4)CC3)n2)ccc1=O 5.76

Please supply the value of reported pIC50 for the item Cn1nc(-c2nc(N3CCC(Cc4cccc(F)c4)CC3)no2)ccc1=O 8.00

Give the measured pIC50 for Cn1nc(OC(=O)N2CCC(Oc3cc(F)cc(F)c3)CC2)ccc1=O 5.30

Kindly indicate its recorded pIC50. Item: Cn1nc(NC(=O)N2CCC(F)(Cc3cccc(F)c3)CC2)ccc1=O 6.66

// fetch pIC50 given entry Cn1nc(-c2nc(N3CCC(Cc4ccc(F)c(F)c4)CC3)no2)ccc1=O 8.00
